Each recorded value in this set is attributed to the EternaBench riboswitch data.

Here, each record is paired with measured apparent Kd data.
# System: MS2 coat protein
# testMethodNotes: apparent Kd, MS2 coat protein; higher = weaker binding; RNA-MaP array; FMN 200 µM where present
# settings: ligand present: flavin mononucleotide; designed as: OFF switch for flavin mononucleotide

| sequenceInput | apparent Kd |
| --- | --- |
| AAACUGCAGAAGAUAAUAAUGAAUACAUGAGGAUCACCCAUGUAGGAUAUCGUCAGGAAUACUGACGAGAAGGACAUACUGCAG | 15.6 nM |
| GUAUAUAGUGUGAGGAUAUGCUGGUCCUUGGAUCAGCAGAAGGCACAUGAGGAUCACCCAUGUAGUUUAUUUUG | 65.7 nM |
| UAUAUAUAGUAAGGAUAUGUAUAUAUUUUACAAACAGAAGGUACUGACAUGAGGAUCACCCAUGUUUUAGUGUGGGCAUGUAGA | 60 nM |
| GUGAGACAUGAGGAUCACCCAUGUCAGGAUAUGAUACUAUGUACUUCGGUACAUAGUAUCAGAAGGGACAGUGA | 66.7 nM |
| UUUUUGUCAGGAUAUCGUGCAUACAACGAAAGUUCUAUGUGCGAGAAGGGACAUGAGGAUCACCCAUGUUACGG | 371 nM |
| AACAGGACAGGAUAUACAUGAGGAUCACCCAUGUGAGAAUUAAGUAGAUUACCACAAAGUAGAAGGGUCCUGGA | 87.2 nM |
| AAAAAACAUGAGGAUCACCCAUGUCAGGAUAUCGUAAAAAAAAAAAAAAAAAAAAAUGCGAGAAGGGACUGGAA | 125 nM |
| CGGUCUUGUAACUAUUUGUUUCACAUGAGGAUCACCCAUGUCAGAAGGAGGUACAUCUAUUAGACCUAGGAUAUGACGUGUAAG | 100 nM |
| GCACUGGAUGUAGGAUAUCAGGACGAUAAGUCCUGAGAAGGACAUGAGGAUCACCCAUGUCUCAAGAAACCAGUGCAUAAUAUA | 15.9 nM |
| UUUGUUUGCGGAGGAUAUAUAAGUGGAUCACCCAUAGAAGGCCGACAUGAGGAUCACCCAUGUUAGACAUGAGGAUCACCCAUG | 140 nM |
| GCUAGGCAUGUCAGGAUAUGCUGAACCUUGGUUCAGCAGAAGGGACAUGAGGAUCACCCAUGUGCCAACCUAGC | 613 nM |
| AAGAACUAAGGAUAUACAUGAGGAUCACCCAUGUCUUUUACAUGUUACUGGCCCGCAUGUAGAAGGUAGAAAAG | 135 nM |
| ACUAUACGAGGAUAUACUGUCGGGCCUCAGACAUAAAUAAGACAUGAGGAUCACCCAUGUAGAAGGCGUUUACU | 114 nM |
| GUAGUGUAUGUAGGAUAUGUGAAGCAAAGCUUCACAGAAGGACAUGAGGAUCACCCAUGUAUUACAGUCAGCAAUCUGACUGUU | 137 nM |
| AAAUAAGUUGCAGGAUAUUAUUUAUAAUAUAUAUAAGAAGGGCAACAAACCUCACAUGAGGAUCACCCAUGUACCCAUGCAUCU | 44.8 nM |
